Entries and their pIC50 values follow.
# STUDY SYSTEM: Epidermal growth factor receptor (Homo sapiens, UniProt P00533)
# Sequence (P00533 whole entry): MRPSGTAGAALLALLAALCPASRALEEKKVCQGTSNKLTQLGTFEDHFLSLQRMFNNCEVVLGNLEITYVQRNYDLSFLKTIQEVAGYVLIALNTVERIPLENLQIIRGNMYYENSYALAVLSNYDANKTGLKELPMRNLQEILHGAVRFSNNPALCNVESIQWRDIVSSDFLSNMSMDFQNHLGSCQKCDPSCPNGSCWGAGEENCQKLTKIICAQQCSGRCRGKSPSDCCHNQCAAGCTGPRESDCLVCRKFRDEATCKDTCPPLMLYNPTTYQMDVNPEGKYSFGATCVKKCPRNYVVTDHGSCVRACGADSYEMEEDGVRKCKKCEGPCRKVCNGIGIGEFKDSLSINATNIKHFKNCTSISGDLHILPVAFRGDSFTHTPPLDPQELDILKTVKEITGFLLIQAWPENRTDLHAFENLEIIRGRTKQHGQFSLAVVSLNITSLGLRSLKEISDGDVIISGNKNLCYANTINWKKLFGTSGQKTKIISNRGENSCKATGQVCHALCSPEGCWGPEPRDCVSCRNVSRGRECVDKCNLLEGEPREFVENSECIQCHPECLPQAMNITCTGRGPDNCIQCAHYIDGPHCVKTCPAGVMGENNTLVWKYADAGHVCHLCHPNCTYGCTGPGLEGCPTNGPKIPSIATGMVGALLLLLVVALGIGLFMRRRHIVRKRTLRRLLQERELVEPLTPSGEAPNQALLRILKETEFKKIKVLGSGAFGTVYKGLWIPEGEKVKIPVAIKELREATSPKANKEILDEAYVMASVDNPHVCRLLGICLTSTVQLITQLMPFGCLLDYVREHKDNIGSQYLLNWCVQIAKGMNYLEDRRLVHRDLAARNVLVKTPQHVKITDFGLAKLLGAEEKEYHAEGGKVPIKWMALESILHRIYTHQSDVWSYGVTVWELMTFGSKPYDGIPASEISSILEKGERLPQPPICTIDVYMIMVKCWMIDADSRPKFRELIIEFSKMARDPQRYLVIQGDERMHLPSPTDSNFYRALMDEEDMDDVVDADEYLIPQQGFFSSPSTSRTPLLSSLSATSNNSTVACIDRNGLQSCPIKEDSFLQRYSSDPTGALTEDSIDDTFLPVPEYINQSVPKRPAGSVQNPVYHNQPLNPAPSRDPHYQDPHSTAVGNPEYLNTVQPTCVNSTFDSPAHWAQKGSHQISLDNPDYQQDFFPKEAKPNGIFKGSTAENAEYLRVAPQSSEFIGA
pIC50: −log10 of the molar value.
READOUT LABEL: pIC50

>>> reported_result("COc1cc2ncnc(-c3c[nH]c4cc(F)c(Cl)cc34)c2cc1OCCCN1CCOCC1")
6.48
>>> reported_result("COc1cc2ncnc(-c3c[nH]c4ccc(Br)cc34)c2cc1OC")
6.88
